A collection of compounds and their measured IC50
target-of-assay: UniProtKB Q13946
Sequence (Q13946 whole entry): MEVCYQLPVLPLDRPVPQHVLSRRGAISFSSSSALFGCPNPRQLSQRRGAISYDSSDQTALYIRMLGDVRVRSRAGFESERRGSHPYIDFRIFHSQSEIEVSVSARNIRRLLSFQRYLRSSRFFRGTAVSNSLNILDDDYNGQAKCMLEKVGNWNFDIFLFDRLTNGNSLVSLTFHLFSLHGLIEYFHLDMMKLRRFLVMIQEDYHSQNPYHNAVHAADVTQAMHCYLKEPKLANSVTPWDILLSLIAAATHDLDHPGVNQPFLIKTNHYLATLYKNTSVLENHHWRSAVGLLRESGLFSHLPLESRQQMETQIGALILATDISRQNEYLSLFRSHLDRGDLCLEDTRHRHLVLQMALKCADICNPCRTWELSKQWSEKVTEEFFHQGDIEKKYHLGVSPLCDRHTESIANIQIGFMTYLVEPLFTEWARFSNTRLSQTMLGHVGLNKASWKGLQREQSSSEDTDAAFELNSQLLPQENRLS
measurement-protocol: PDE 7 inhibiting effect (3H-cAMP hydrolysis, PDE 7 active fraction from MOLT-4 cells)
Assay type: biochemical
conditions: PDE 7 fraction from MOLT-4 cells, 0.064 μM cAMP, 10 μM rolipram, 2 hours at 25° C.; read-out: PDE7 IC50

[
  {
    "sample-smiles": "Cc1nn(C2CCCCC2)c2sc(C(=O)Nc3ccc(C(=O)N4CCC(O)CC4)nc3)cc12",
    "IC50 (µM)": 0.044
  },
  {
    "sample-smiles": "COc1cc(NC(=O)c2cc3c(C)nn(C4CCCCC4)c3s2)ccc1C(=O)NCCO",
    "IC50 (µM)": 0.045
  },
  {
    "sample-smiles": "CNC(=O)c1ccc(NC(=O)c2cc3c(C)nn(C4CCCCC4)c3s2)cc1",
    "IC50 (µM)": 0.033
  },
  {
    "sample-smiles": "CC(=O)Nc1ccc(NC(=O)c2cc3c(C)nn(C4CCCCC4)c3s2)cn1",
    "IC50 (µM)": 0.032
  },
  {
    "sample-smiles": "Cc1nn(C2CCCCC2)c2sc(C(=O)Nc3ccc4c(c3)CCN4S(C)(=O)=O)cc12",
    "IC50 (µM)": 0.08
  },
  {
    "sample-smiles": "Cc1nn(C2CCCCC2)c2sc(C(=O)N[C@H]3CC[C@H](C(=O)O)CC3)cc12",
    "IC50 (µM)": 0.091
  },
  {
    "sample-smiles": "CC(=O)N1CCN([C@H]2CC[C@H](NC(=O)c3cc4c(C)nn(C5CCCCC5)c4s3)CC2)CC1",
    "IC50 (µM)": 0.0035
  },
  {
    "sample-smiles": "CNC(=O)c1ccc(NC(=O)c2cc3c(C)nn(C4CCCCC4)c3s2)cn1",
    "IC50 (µM)": 0.058
  },
  {
    "sample-smiles": "Cc1nn(C2CCCCC2)c2sc(C(=O)N[C@H]3CC[C@H](N4CCN(C)CC4)CC3)cc12",
    "IC50 (µM)": 0.016
  },
  {
    "sample-smiles": "CNC1CCN(c2ccc(NC(=O)c3cc4c(C)nn(C5CCCCC5)c4s3)cc2Cl)CC1",
    "IC50 (µM)": 0.02
  },
  {
    "sample-smiles": "CC(=O)Nc1ccc(NC(=O)c2cc3c(C)nn(C4CCCCC4)c3s2)cc1",
    "IC50 (µM)": 0.037
  },
  {
    "sample-smiles": "Cc1nn(C2CCCCC2)c2sc(C(=O)Nc3ccc(C(=O)NCCN(C)C)nc3)cc12",
    "IC50 (µM)": 0.022
  },
  {
    "sample-smiles": "Cc1nn(C2CCCCC2)c2sc(C(=O)Nc3ccc4c(c3)CCN4C(=O)C(C)C)cc12",
    "IC50 (µM)": 0.083
  },
  {
    "sample-smiles": "CC(=O)N[C@H]1CC[C@H](NC(=O)c2cc3c(C)nn(C4CCCCC4)c3s2)CC1",
    "IC50 (µM)": 0.06
  },
  {
    "sample-smiles": "CNC(=O)[C@H]1CC[C@H](NC(=O)c2cc3c(C)nn(C4CCCCC4)c3s2)CC1",
    "IC50 (µM)": 0.0078
  },
  {
    "sample-smiles": "COc1cc(NC(=O)c2cc3c(C)nn(C4CCCCCC4)c3s2)ccc1NC(C)=O",
    "IC50 (µM)": 0.04
  },
  {
    "sample-smiles": "CCN1CCN([C@H]2CC[C@H](NC(=O)c3cc4c(C)nn(C5CCOCC5)c4s3)CC2)CC1=O",
    "IC50 (µM)": 0.03
  }
]

* * *

Reported pIC50 values are given for each entry in this list.
target-of-assay: PDE 4 (phosphodiesterase IV)
measurement-protocol: PDE 4 inhibiting effect (3H-cAMP hydrolysis, PDE 4 active fraction from Balb/c mouse liver)
Type: biochemical
conditions: PDE 4 fraction from Balb/c mice liver, 0.064 μM cAMP, 2 hours at 25° C.; read-out: PDE4 IC50
pIC50: −log10 of the molar value. Structures can show the parent of a compound that is named as a salt.

[
  {
    "molecule": "Cc1nn(C2CCCCC2)c2sc(C(=O)N[C@H]3CC[C@H](O)CC3)cc12 [Example 74]",
    "target-of-assay": "PDE 4 (phosphodiesterase IV)",
    "relation-operator": "=",
    "pIC50": 5.15
  },
  {
    "molecule": "Cc1nn(C2CCOCC2)c2sc(C(=O)N[C@H]3CC[C@H](C(=O)N(C)C)CC3)cc12 [Example 349]",
    "target-of-assay": "PDE 4 (phosphodiesterase IV)",
    "relation-operator": "=",
    "pIC50": 5.55
  },
  {
    "molecule": "Cc1nn(C2CCCCC2)c2sc(C(=O)NCCN3C(=O)CNC3=O)cc12 [Example 305]",
    "target-of-assay": "PDE 4 (phosphodiesterase IV)",
    "relation-operator": "=",
    "pIC50": 5.17
  },
  {
    "molecule": "CC(=O)N1CCN(Cc2ccc(NC(=O)c3cc4c(C)nn(C5CCCCC5)c4s3)cn2)CC1 [Example 414]",
    "target-of-assay": "PDE 4 (phosphodiesterase IV)",
    "relation-operator": "=",
    "pIC50": 5.55
  },
  {
    "molecule": "Cc1nn(C2CCCCC2)c2sc(C(=O)N[C@H]3CC[C@H](C(=O)N(C)C)CC3)cc12 [Example 208]",
    "target-of-assay": "PDE 4 (phosphodiesterase IV)",
    "relation-operator": "=",
    "pIC50": 5.42
  },
  {
    "molecule": "Cc1nn(C2CCCCC2)c2sc(C(=O)N[C@H]3CC[C@H](N4CCC(N)CC4)CC3)cc12 [Example 184]",
    "target-of-assay": "PDE 4 (phosphodiesterase IV)",
    "relation-operator": "=",
    "pIC50": 5.96
  },
  {
    "molecule": "Cc1nn(C2CCOCC2)c2sc(C(=O)N[C@H]3CC[C@H](N4CCC(C(=O)N(C)C)CC4)CC3)cc12 [Example 428]",
    "target-of-assay": "PDE 4 (phosphodiesterase IV)",
    "relation-operator": "=",
    "pIC50": 5.01
  },
  {
    "molecule": "Cc1nn(C2CCCCC2)c2sc(C(=O)Nc3ccc(C(=O)NC(C)(C)C)cc3)cc12 [Example 51]",
    "target-of-assay": "PDE 4 (phosphodiesterase IV)",
    "relation-operator": "=",
    "pIC50": 5.02
  },
  {
    "molecule": "Cc1nn(C2CCCCC2)c2sc(C(=O)Nc3ccc4c(c3)CCN4)cc12 [Example 14, HCl salt]",
    "target-of-assay": "PDE 4 (phosphodiesterase IV)",
    "relation-operator": "=",
    "pIC50": 5.43
  },
  {
    "molecule": "Cc1nn(C2CCOCC2)c2sc(C(=O)N[C@H]3CC[C@H](N4CCN(C)CC4=O)CC3)cc12 [Example 415]",
    "target-of-assay": "PDE 4 (phosphodiesterase IV)",
    "relation-operator": "=",
    "pIC50": 5.29
  },
  {
    "molecule": "Cc1nn(C2CCCCC2)c2sc(C(=O)Nc3ccc(C(=O)NCCN(C)C)nc3)cc12 [Example 381]",
    "target-of-assay": "PDE 4 (phosphodiesterase IV)",
    "relation-operator": "=",
    "pIC50": 6.17
  },
  {
    "molecule": "Cc1nn(C2CCCCC2)c2sc(C(=O)N[C@H]3CC[C@H](C(=O)N(C)C)C3)cc12 [Example 230, HCl salt]",
    "target-of-assay": "PDE 4 (phosphodiesterase IV)",
    "relation-operator": "=",
    "pIC50": 5.15
  },
  {
    "molecule": "CC(=O)Nc1ccc(NC(=O)c2cc3c(C)nn(C4CCCCC4)c3s2)cn1 [Example 47]",
    "target-of-assay": "PDE 4 (phosphodiesterase IV)",
    "relation-operator": "=",
    "pIC50": 5.46
  },
  {
    "molecule": "CC(=O)N1CCN([C@H]2CC[C@H](NC(=O)c3cc4c(C)nn(C5CCCCC5)c4s3)CC2)CC1 [Example 190]",
    "target-of-assay": "PDE 4 (phosphodiesterase IV)",
    "relation-operator": "=",
    "pIC50": 5.77
  },
  {
    "molecule": "CC(=O)Nc1ccc(NC(=O)c2cc3c(C)nn(C4CCCCC4)c3s2)cc1 [Example 100]",
    "target-of-assay": "PDE 4 (phosphodiesterase IV)",
    "relation-operator": "<",
    "pIC50": 4.52
  },
  {
    "molecule": "Cc1nn(C2CCOCC2)c2sc(C(=O)Nc3ccc(N4CCNC(=O)C4)cc3)cc12 [Example 342]",
    "target-of-assay": "PDE 4 (phosphodiesterase IV)",
    "relation-operator": "=",
    "pIC50": 5.34
  }
]

This collection of values is drawn from patent US8901315B2.
